Quick reference for MIC E. coli among some compounds
- Tested on: Escherichia coli ATCC 25922
- Format: cell-based
- measurement_setup: ATCC 25922
Peptide text beside a SMILES is read from it. * marks the point of attachment. Acm = CC(=O)NC*
Return type: number; implicit unit µg/mL.

Completed entries (count: 3):
compound: CSCC[C@H](NC(=O)[C@H](CCCNC(=N)N)NC(=O)[C@H](Cc1c(S(=O)(=O)c2c(C)c(C)c3c(c2C)CCC(C)(C)O3)[nH]c2ccccc12)NC(=O)[C@H](CCC(N)=O)NC(=O)[C@H](Cc1ccc2ccccc2c1)NC(=O)[C@H](CCCNC(=N)N)NC(=O)[C@H](CCCNC(=N)N)NC(=O)[C@H](CSCNC(C)=O)NC(=O)[C@H](CCCCN)NC(=O)[C@@H](N)Cc1ccccc1)C(=O)N[C@@H](CCCCN)C(=O)N[C@@H](CCCCN)C(=O)N[C@@H](CC(C)C)C(=O)NCC(=O)N[C@@H](C)C(=O)O
assay_target: Escherichia coli ATCC 25922
unit: µg/mL
MIC E. coli: 25
--
compound: CSCC[C@H](NC(=O)[C@H](CCC(=O)O)NC(=O)[C@H](Cc1c[nH]c2ccccc12)NC(=O)[C@H](CCC(N)=O)NC(=O)[C@H](Cc1c[nH]c2ccccc12)NC(=O)[C@H](CCCNC(=N)N)NC(=O)[C@H](CC(C)C)NC(=O)[C@H](CSCNC(C)=O)NC(=O)[C@H](CCCCN)NC(=O)[C@@H](N)CCCNC(=N)N)C(=O)N[C@@H](CCCNC(=N)N)C(=O)N[C@@H](CCCCN)C(=O)N[C@H](C(=O)NCC(=O)NCC(=O)O)C(C)C [LFM R1, W8] (H-RKC(Acm)LRWQWEMRKVGG-OH; N-terminus assumed)
assay_target: Escherichia coli ATCC 25922
unit: µg/mL
MIC E. coli: 75
--
compound: CSCC[C@H](NC(=O)[C@H](CCCNC(=N)N)NC(=O)[C@H](Cc1c[nH]c2ccccc12)NC(=O)[C@H](CCC(N)=O)NC(=O)[C@H](Cc1c[nH]c2ccccc12)NC(=O)[C@H](CCCNC(=N)N)NC(=O)[C@H](CCCNC(=N)N)NC(=O)[C@H](CSCNC(C)=O)NC(=O)[C@H](CCCCN)NC(=O)[C@@H](N)Cc1ccccc1)C(=O)N[C@@H](CCCCN)C(=O)N[C@@H](C)C(=O)N[C@@H](CC(C)C)C(=O)NCC(=O)N[C@@H](C)C(=O)O [LFB A12] (H-FKC(Acm)RRWQWRMKALGA-OH)
assay_target: Escherichia coli ATCC 25922
unit: µg/mL
MIC E. coli: 50

Shift focus to the following entry.
Q) I am curious: what MIC E. coli value has been reported for CSCC[C@H](NC(=O)[C@H](CCCNC(=N)N)NC(=O)[C@H](Cc1c[nH]c2ccccc12)NC(=O)[C@H](CCC(N)=O)NC(=O)[C@H](Cc1c[nH]c2ccccc12)NC(=O)[C@H](CCCNC(=N)N)NC(=O)[C@H](CC(C)C)NC(=O)[C@H](CSCNC(C)=O)NC(=O)[C@H](CCCCN)NC(=O)[C@@H](N)CCCNC(=N)N)C(=O)N[C@@H](CCCNC(=N)N)C(=O)N[C@@H](CCCCN)C(=O)N[C@@H](Cc1ccc(O)cc1)C(=O)NCC(=O)NCC(=O)O [LFM R1, 9 W8 Y13] (H-RKC(Acm)LRWQWRMRKYGG-OH; N-terminus and C-terminus assumed) ?
A) 25
